The values you see were collected from ChEMBL document CHEMBL3991601.

# Target Under Test: Tyrosine-protein kinase SYK (Homo sapiens, UniProt P43405); note: in the data inactive means no Kd found up to 30 µM
Activity calls are given as the source filed them.
In this section we review reported Kd values for a set of molecules.

Would you please look over these solved cases?
CC(=O)Nc1cccc(-n2c(=O)n(C3CC3)c(=O)c3c(Nc4ccc(I)cc4F)n(C)c(=O)c(C)c32)c1 [TRAMETINIB] | > 30 µM (inactive)
O=C(c1ccc(F)c(F)c1Nc1ccc(I)cc1F)N1CC(O)([C@@H]2CCCCN2)C1 [COBIMETINIB] | > 30 µM (inactive)
OCCn1cc(-c2cnc3nnn(Cc4ccc5ncccc5c4)c3n2)cn1 [PF-04217903] | > 30 µM (inactive)
Cn1cc(-c2ccc(F)c(C(F)(F)F)c2)nc1C1CCN(c2ncnc3[nH]ncc23)CC1 [LY-2584702] | > 30 µM (inactive)
Cc1cc2c(F)c(Oc3ncnn4cc(OC[C@@H](C)OC(=O)[C@H](C)N)c(C)c34)ccc2[nH]1 [BRIVANIB ALANINATE] | > 30 µM (inactive)
Cc1ccc(-n2nc(C(C)(C)C)cc2NC(=O)NCc2cc(F)ccc2Oc2ccc3c(cnn3CCO)c2)cc1 [PEXMETINIB] | > 30 µM (inactive)
CO[C@H]1C[C@@H]2CC[C@@H](C)[C@@](O)(O2)C(=O)C(=O)N2CCCC[C@H]2C(=O)O[C@H]([C@H](C)C[C@@H]2CC[C@@H](OCCO)[C@H](OC)C2)CC(=O)[C@H](C)/C=C(\C)[C@@H](O)[C@@H](OC)C(=O)[C@H](C)C[C@H](C)/C=C/C=C/C=C/1C [EVEROLIMUS] | > 30 µM (inactive)
COC(=O)N[C@@H](C)CNc1nccc(-c2cn(C(C)C)nc2-c2cc(Cl)cc(NS(C)(=O)=O)c2F)n1 [ENCORAFENIB] | > 30 µM (inactive)

State the recorded Kd for this entry: C[C@@H](c1ccc2nccn2c1)n1nnc2ncc(-c3cnn(C)c3)nc21 [SAVOLITINIB]
> 30 µM (inactive)

COc1ccc(-c2ccc3c(N4CCOC[C@@H]4C)nc(N4CCOC[C@@H]4C)nc3n2)cc1CO [AZD-8055] , same question.
> 30 µM (inactive)

COc1cc2nccc(Oc3ccc(NC(=O)NC4CC4)c(Cl)c3)c2cc1C(N)=O [LENVATINIB] , same question.
> 30 µM (inactive)

C=CC(=O)N1CCC(Oc2cc3c(Nc4ccc(Cl)c(Cl)c4F)ncnc3cc2OC)CC1 [POZIOTINIB] , same question.
> 30 µM (inactive)

----------
Activity calls are given as the source filed them.
Kd tested on Midasin (Homo sapiens, UniProt Q9NU22): recorded values; note: in the data inactive means no Kd found up to 30 µM

Would you please look over these solved cases?
Cc1cc(Nc2cc(N3CCN(C)CC3)nc(/C=C/c3ccccc3)n2)n[nH]1 [ENMD-2076] | > 30 µM (inactive)
Cc1cn(-c2cc(NC(=O)c3ccc(C)c(Nc4nccc(-c5cccnc5)n4)c3)cc(C(F)(F)F)c2)cn1 [NILOTINIB] | > 30 µM (inactive)
CC(=O)Nc1cccc(-n2c(=O)n(C3CC3)c(=O)c3c(Nc4ccc(I)cc4F)n(C)c(=O)c(C)c32)c1 [TRAMETINIB] | > 30 µM (inactive)
COc1cc(N2CCC(N3CCN(C)CC3)CC2)ccc1Nc1ncnc(Nc2ccccc2S(=O)(=O)C(C)C)n1 [ASP-3026] | > 30 µM (inactive)
Cc1cc2c(F)c(Oc3ncnn4cc(OC[C@@H](C)OC(=O)[C@H](C)N)c(C)c34)ccc2[nH]1 [BRIVANIB ALANINATE] | > 30 µM (inactive)

State the recorded Kd for this entry: Cn1ncc(Cl)c1-c1cc(C(=O)N[C@H](CN)Cc2cccc(F)c2)sc1Cl [AFURESERTIB]
> 30 µM (inactive)

CCn1c(-c2nonc2N)nc2c(C#CC(C)(C)O)ncc(OC[C@H]3CCCNC3)c21 [GSK-690693] , same question.
> 30 µM (inactive)
